measured_endpoint: logP
Write the number on its own, no unit after it.

>>> result("O=[N+]([O-])N=C1NCCN1Cc1cccnc1")
-0.19
>>> result("CN1CCN(Cc2ccc(Cl)nc2)C1=N[N+](=O)[O-]")
0.26
>>> result("O=[N+]([O-])C=C1NCCN1Cc1ccccn1")
-0.87

Lab book: logP of `N#CN=C1NCCN1Cc1ccc(Cl)nc1` noted as 0.77

Lab book: logP of `O=[N+]([O-])/C=C1\NCCN1Cc1ccc(Cl)nc1` noted as -0.19

Lab book: logP of `O=[N+]([O-])C=C1NCCN1c1ccc(Cl)nc1` noted as -0.23

Lab book: logP of `O=[N+]([O-])C=C1NCCCN1Cc1ccc(Cl)nc1` noted as -0.62

====

assay_summary: method code SF-AS, from DOI: 10.1006/pest.1994.1057
Let's look at some compounds and their measured logP.
Write the number on its own, no unit after it.

Lab book: logP of `O=[N+]([O-])C=C1NCCN1CCc1ccc(Cl)nc1` noted as -0.23

Lab book: logP of `O=[N+]([O-])C=C1SCCN1Cc1ccc(Cl)nc1` noted as 0.65

Lab book: logP of `O=[N+]([O-])/C=C1\NCCN1Cc1ccccc1` noted as 0.33

Lab book: logP of `Cc1ccc(CN2CCNC2=C[N+](=O)[O-])cn1` noted as -0.59

====

Let's look at some compounds and their measured logP.
assay_summary: method code SF-AS, from DOI: 10.1006/pest.1994.1057
Write the number on its own, no unit after it.

Previously resolved entries follow.
>>> result("O=[N+]([O-])C=C1NCCN1Cc1ccncc1")
-1.05
>>> result("O=[N+]([O-])C=C1NCCN1Cc1ccc(Cl)cc1")
0.99

Moving on to another compound below.
Lab book: logP of `O=[N+]([O-])/C=C1/NCCN1Cc1cccnc1` noted as -1.02
